test system: PPARg DBDmut:RXRa IVT, anti-PPARg (DBD mutation: PPARg1 K132A/R137A, NR concentration 270 nM, RXRa partner concentration 90 nM); assay: PBM binding z-score (relative to random genomic background probes); higher = stronger binding; sequences stand for … in GC…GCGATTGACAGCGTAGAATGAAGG
Everything with PBM binding z-score lower than 1 is 0 (no); everything else, including exactly 1, is 1 (yes).

Example entries and their recorded answers appear below.
Answer whether PBM binding z-score of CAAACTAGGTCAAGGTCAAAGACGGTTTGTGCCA is greater than or equal to 1.
1 (yes)

Answer whether PBM binding z-score of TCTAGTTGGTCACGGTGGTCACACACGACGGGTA is greater than or equal to 1.
1 (yes)

Answer whether PBM binding z-score of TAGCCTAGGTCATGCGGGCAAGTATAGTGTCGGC is greater than or equal to 1.
0 (no)

Answer whether PBM binding z-score of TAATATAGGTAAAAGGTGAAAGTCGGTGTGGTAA is greater than or equal to 1.
1 (yes)

Answer whether PBM binding z-score of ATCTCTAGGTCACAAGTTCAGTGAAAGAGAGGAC is greater than or equal to 1.
1 (yes)

Answer whether PBM binding z-score of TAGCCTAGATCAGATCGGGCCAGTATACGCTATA is greater than or equal to 1.
0 (no)

Answer whether PBM binding z-score of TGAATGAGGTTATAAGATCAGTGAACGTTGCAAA is greater than or equal to 1.
1 (yes)

Answer whether PBM binding z-score of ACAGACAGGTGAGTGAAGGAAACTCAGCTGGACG is greater than or equal to 1.
0 (no)

Others:
Answer whether PBM binding z-score of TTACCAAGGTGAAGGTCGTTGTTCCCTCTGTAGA is greater than or equal to 1.
0 (no)

Answer whether PBM binding z-score of CATACAGGGTCAGCTAGGCGAGAGTAGGGACGGC is greater than or equal to 1.
0 (no)

###

system: RXRa DBDmut IVT, anti-RXR (DBD mutation: RXRa K156A/R161A, NR concentration 90 nM); test: PBM binding z-score (relative to random genomic background probes); higher = stronger binding; sequences stand for … in GC…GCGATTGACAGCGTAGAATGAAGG
Binning rule for recorded PBM binding z-score: b0: < 0.5; b1: ≥ 0.5 and < 1; b2: ≥ 1

Please classify: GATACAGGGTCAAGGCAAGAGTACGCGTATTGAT
b2

Please classify: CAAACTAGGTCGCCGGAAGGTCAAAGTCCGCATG
b2

Please classify: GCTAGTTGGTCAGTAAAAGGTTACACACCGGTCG
b0

Please classify: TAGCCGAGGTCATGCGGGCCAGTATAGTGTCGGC
b2

Please classify: GGAACGAGGGCATTCGAGTTGATAGAATGGCGAT
b2

Others:
Please classify: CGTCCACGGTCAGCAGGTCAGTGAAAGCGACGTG
b0

Please classify: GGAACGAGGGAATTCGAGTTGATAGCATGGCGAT
b0

###

system: PPARg:RXRa IVT, anti-PPARg (NR concentration 270 nM, RXRa partner concentration 90 nM); assay: PBM binding z-score (relative to random genomic background probes); higher = stronger binding; sequences stand for … in GC…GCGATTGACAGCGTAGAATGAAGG
Binning rule for recorded PBM binding z-score: lower band: < 0.6; central band: ≥ 0.6 and < 5; upper band: ≥ 5

Please classify: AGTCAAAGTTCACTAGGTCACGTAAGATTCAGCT
upper band

Please classify: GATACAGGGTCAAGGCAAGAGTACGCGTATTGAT
central band

Please classify: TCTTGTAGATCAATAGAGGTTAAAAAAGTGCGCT
central band

###

system: PPARg:RXRa 270nM:90nM, anti-RXR (NR concentration 270 nM, RXRa partner concentration 90 nM); test: PBM binding z-score (relative to random genomic background probes); higher = stronger binding; sequences stand for … in GC…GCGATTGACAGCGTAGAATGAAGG
measured-parameter: PBM binding z-score
Numbers only.

The reported value for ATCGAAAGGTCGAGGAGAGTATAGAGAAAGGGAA in terms of PBM binding z-score is 2.92

The reported value for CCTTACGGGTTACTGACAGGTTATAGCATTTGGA in terms of PBM binding z-score is 1.24

The reported value for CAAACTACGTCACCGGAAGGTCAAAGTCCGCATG in terms of PBM binding z-score is 1.71

Items follow; give PBM binding z-score for each.
1. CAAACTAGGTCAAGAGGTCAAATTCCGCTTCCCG
2. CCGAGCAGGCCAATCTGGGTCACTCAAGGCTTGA
3. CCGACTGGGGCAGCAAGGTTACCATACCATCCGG
4. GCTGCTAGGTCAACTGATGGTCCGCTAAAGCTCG

8.42
2.12
0.659
2.97

Items follow; give PBM binding z-score for each.
1. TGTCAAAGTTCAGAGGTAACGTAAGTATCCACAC
2. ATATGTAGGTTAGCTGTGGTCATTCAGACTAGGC
3. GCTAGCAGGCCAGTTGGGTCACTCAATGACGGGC
4. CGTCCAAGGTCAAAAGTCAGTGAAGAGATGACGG
5. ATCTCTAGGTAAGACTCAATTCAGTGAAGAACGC
6. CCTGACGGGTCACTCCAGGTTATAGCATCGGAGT
7. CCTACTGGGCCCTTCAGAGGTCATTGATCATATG
8. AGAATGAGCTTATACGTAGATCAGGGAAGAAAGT

1: 6.33; 2: 2.79; 3: 0.0245; 4: 5.87; 5: 0.208; 6: 2.43; 7: 1.95; 8: -0.614

The reported value for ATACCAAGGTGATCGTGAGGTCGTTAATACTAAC in terms of PBM binding z-score is 0.146

###

tested on: VDR:RXRa (NR concentration 270 nM, RXRa partner concentration 90 nM); assay: PBM binding z-score (relative to random genomic background probes); higher = stronger binding; sequences stand for … in GC…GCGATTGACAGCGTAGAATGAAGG
Everything with PBM binding z-score lower than 2 is Not satisfied; everything else, including exactly 2, is Satisfied.

Example entries and their recorded answers appear below.
Answer whether PBM binding z-score of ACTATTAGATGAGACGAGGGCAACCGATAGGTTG is greater than or equal to 2.
Not satisfied

Answer whether PBM binding z-score of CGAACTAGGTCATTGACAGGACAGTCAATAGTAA is greater than or equal to 2.
Satisfied

Answer whether PBM binding z-score of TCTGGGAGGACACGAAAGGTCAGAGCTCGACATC is greater than or equal to 2.
Satisfied

Answer whether PBM binding z-score of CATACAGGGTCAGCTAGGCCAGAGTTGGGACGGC is greater than or equal to 2.
Satisfied

Others:
Answer whether PBM binding z-score of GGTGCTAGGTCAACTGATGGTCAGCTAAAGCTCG is greater than or equal to 2.
Not satisfied

Answer whether PBM binding z-score of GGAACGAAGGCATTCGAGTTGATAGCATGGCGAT is greater than or equal to 2.
Not satisfied

Answer whether PBM binding z-score of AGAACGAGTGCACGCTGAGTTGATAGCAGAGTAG is greater than or equal to 2.
Satisfied

Answer whether PBM binding z-score of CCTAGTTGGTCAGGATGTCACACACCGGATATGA is greater than or equal to 2.
Not satisfied

Answer whether PBM binding z-score of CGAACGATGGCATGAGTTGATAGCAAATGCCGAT is greater than or equal to 2.
Not satisfied

Answer whether PBM binding z-score of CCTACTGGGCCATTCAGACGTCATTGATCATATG is greater than or equal to 2.
Not satisfied

Answer whether PBM binding z-score of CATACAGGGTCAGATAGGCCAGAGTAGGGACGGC is greater than or equal to 2.
Satisfied

Answer whether PBM binding z-score of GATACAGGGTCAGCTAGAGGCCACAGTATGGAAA is greater than or equal to 2.
Satisfied

Answer whether PBM binding z-score of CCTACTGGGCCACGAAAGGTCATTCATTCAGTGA is greater than or equal to 2.
Satisfied

###

Could you please report measured PBM binding z-score for the items listed next?
test system: VDR homodimer (NR concentration 270 nM); assay: PBM binding z-score (relative to random genomic background probes); higher = stronger binding; sequences stand for … in GC…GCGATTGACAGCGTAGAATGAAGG
Give bare numbers.

Items follow; give PBM binding z-score for each.
1. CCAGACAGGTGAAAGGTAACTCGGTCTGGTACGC
2. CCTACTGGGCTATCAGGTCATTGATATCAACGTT

1: -0.126; 2: 1.01
